biological target: hT1R1/hT1R3 umami receptor (Homo sapiens, UniProt Q7RTX0+Q7RTX1); construct: expressed in transfected cells; host or cells: HEK293 derivative stably expressing Gα15, clone I-17, expression induced with mifepristone; assay: In vitro hT1R1/hT1R3 umami taste receptor activation assay (FLIPR, dose response); format: cell-based; conditions: read-out: EC50 for activation of a hT1R1/hT1R3 umami receptor expressed in an HEK293 cell line
Exercise: for every item that follows, state its recorded pEC50.
Note on pEC50: it is the negative log10 of concentration, concentration in mol/L.

Query :: Output pEC50 of COc1ccc(C(=O)NCCSCc2ccco2)cc1C [Example 106]
Result :: 5.25

Query :: Note pEC50 for the compound shown: CCCC(CCC)NC(=O)c1ccc(OC)nc1 [Example 94, N-(heptan-4-yl)-6-methoxynicotinamide]
Result :: 5.58

Query :: For the compound CCCC(NC(=O)c1ccc(OC)c(C)c1)c1ccc(OC)cc1 (stereo not shown) [Example 54] , give its reported pEC50.
Result :: 5.50

Query :: Please report pEC50 for the following compound: CCCC(CCC)NC(=O)c1ccc(C)nc1Cl [Example 96]
Result :: 5.41

Query :: Return the recorded pEC50 value; entry: CCc1ccc(CCNC(=O)c2ccc3c(c2)OCO3)cc1 [Example 112]
Result :: 5.41

Query :: Specify measured pEC50 for Cc1cc(C(=O)NC(C)CCc2ccccc2)ccc1O (stereo not shown) [Example 111] .
Result :: 5.57

Query :: Annotate the compound COc1cccc(CNC(=O)C(=O)NCCc2ccccn2)c1OC [Example 146] with its measured pEC50.
Result :: 6.16

Query :: Find the measured pEC50 of COC(=O)c1ccc(CNC(=O)C(=O)NCCc2ccccn2)cc1 [Example 141] and report it.
Result :: 5.44

Query :: Look up and report measured pEC50 for this entry: CCCC(CCC)NC(=O)c1ccc2c(c1)OCCO2 [Example 23]
Result :: 6.31

Query :: Indicate its recorded pEC50; the compound in question is CCC(CC)NC(=O)c1ccc(OC)c(C)c1 [Example 119]
Result :: 6.40

Query :: Supply reported pEC50 belonging to this compound: COc1ccc(CNC(=O)C(=O)NCCc2cccs2)c(OC)c1 [Example 156]
Result :: 5.31

Query :: State, in one line, measured pEC50 of COc1ccc(CNC(=O)C(=O)NC(C)Cc2ccccn2)c(OC)c1 (stereo not shown) [Example 143]
Result :: 6.40

Query :: Tell us which pEC50 value is on record for CCCC(CCC)NC(=O)/C=C/c1ccc(OC)c(OC)c1 [Example 87]
Result :: 6.01

Query :: Fill in pEC50 for record CCCC(CCC)NC(=O)c1cc2ccccc2o1 [Example 25]
Result :: 6.06

Query :: Determine its reported pEC50: CCCC(CCC)NC(=O)c1ccc2ncccc2c1 [Example 101, N-(heptan-4-yl)quinoline-6-carboxamide]
Result :: 5.49

Query :: Consider the compound CCCC(NC(=O)c1ccc(C)c(C)c1)C(C)C (stereo not shown) [Example 68] and give its recorded pEC50.
Result :: 6.96

* * *

Target: hT1R1/hT1R3 umami receptor (Homo sapiens, UniProt Q7RTX0+Q7RTX1)
Construct: expressed in transfected cells; host or cells: HEK293 derivative stably expressing Gα15, clone I-17, expression induced with mifepristone
Sequence (Q7RTX1 21-841): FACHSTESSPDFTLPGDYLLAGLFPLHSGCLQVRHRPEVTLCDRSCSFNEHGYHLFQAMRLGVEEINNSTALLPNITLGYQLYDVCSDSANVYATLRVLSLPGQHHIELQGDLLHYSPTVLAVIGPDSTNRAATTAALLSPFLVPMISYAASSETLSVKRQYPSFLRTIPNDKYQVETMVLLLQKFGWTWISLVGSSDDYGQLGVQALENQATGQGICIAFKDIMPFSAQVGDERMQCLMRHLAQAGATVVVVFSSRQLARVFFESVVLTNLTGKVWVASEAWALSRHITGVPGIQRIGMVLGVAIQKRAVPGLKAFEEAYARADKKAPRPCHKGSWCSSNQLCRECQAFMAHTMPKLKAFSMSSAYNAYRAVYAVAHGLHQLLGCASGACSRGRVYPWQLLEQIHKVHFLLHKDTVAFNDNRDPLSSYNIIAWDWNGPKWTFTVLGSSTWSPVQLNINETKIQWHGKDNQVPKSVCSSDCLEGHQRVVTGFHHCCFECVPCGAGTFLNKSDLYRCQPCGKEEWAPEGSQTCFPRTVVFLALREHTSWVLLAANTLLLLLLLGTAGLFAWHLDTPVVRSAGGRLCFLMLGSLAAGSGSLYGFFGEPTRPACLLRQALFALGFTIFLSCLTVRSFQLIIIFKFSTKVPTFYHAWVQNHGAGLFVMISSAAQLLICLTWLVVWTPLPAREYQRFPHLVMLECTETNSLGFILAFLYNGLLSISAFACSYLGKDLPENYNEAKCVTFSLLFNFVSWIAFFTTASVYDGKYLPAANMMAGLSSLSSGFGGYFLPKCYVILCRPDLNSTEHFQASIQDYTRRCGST
Sequence (Q7RTX0 21-852): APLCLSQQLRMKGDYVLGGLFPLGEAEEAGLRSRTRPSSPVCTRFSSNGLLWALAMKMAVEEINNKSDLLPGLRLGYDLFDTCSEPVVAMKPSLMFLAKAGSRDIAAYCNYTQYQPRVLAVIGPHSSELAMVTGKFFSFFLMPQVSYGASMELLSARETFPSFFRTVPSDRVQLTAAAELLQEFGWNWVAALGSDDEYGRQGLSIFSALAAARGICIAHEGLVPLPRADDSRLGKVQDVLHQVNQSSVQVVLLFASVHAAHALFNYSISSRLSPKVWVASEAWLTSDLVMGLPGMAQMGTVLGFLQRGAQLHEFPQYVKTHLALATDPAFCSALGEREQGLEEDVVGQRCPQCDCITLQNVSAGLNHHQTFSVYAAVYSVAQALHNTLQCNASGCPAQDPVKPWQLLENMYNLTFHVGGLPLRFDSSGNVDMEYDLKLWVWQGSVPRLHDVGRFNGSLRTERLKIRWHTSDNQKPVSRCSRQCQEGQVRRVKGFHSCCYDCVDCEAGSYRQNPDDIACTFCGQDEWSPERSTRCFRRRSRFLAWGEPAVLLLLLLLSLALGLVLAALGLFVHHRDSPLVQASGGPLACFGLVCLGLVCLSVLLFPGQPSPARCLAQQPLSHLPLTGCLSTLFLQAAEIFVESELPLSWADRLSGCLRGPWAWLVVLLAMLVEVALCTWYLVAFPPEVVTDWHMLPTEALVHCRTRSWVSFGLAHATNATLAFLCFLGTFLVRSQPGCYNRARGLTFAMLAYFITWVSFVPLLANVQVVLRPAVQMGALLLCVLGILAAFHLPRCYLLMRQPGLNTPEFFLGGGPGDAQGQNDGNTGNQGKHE
Assay: In vitro hT1R1/hT1R3 umami taste receptor activation assay (FLIPR, dose response)
Format: cell-based
Details: Table D, Umami Acrylamides; read-out: Umami EC50
assay metric: EC50 (nM)
Just the number in nM, nothing appended.

Query :: Quick one: give measured EC50 for CCOc1ccc(/C=C/C(=O)N[C@@H](COC)CC(C)C)cc1
Result :: 940

Query :: Quickly give me recorded EC50 for CCCC(CCC)NC(=O)/C=C/c1ccsc1
Result :: 1540

Query :: Supply measured EC50 of COC(=O)[C@@H](CC(C)C)NC(=O)/C=C/c1ccccc1 in your reply.
Result :: 1170

Query :: Return value of EC50 for input CCCC(CCC)NC(=O)/C=C/c1cccs1 , no commentary.
Result :: 750

Query :: Please look at this compound and report its EC50: CCCC(CCC)NC(=O)/C=C/c1ccc(OC)cc1
Result :: 720

Query :: Consider the compound CCC(CC)NC(=O)/C=C/c1ccc(OC)cc1 . State its measured EC50.
Result :: 820

Query :: Consider the compound COC(=O)[C@@H](CC(C)C)NC(=O)/C=C/c1ccsc1 . State its measured EC50.
Result :: 1090

Query :: Output measured EC50 for this item: CC(CCc1ccccc1)NC(=O)/C=C/c1cccs1 (stereo not drawn)
Result :: 690

Query :: Recall and state the measured EC50 for CCCCC(NC(=O)/C=C/c1ccc(OC)cc1)C(=O)OC (stereo not drawn) .
Result :: 630
